Test system: Acinetobacter baumannii ATCC 17978
Assay: Antimicrobial susceptibility testing: 90% growth inhibitory concentration (IC90) determination
Assay type: cell-based
Conditions: Acinetobacter baumannii, ATCC17978, 16 h, 90% growth inhibitory concentration; Acinetobacter baumannii ATCC17978; Iso-Sensitest broth, OD 600 nm over 16h; read-out: ATCC17978 IC90
Structures can show the parent of a compound that is named as a salt.
Entries whose IC90 is below 500 nM take yes (1); entries at or above 500 nM take no (0).

The following compounds have reported results that may help.
COc1ccc(-c2cnc3c(Nc4cc(F)c(C(=O)NCCCN)c(F)c4)nccn23)c(F)c1F [Example 435] :: no (0)
COc1ccc(-c2cnc3c(Nc4ccc(C(=O)NCCCCN)c(C)c4)nccn23)cc1 [Example 194] :: yes (1)
Cc1cc(Nc2nccn3c(-c4ccc(OC(F)F)cc4)cnc23)ccc1C(=O)N(C)CC(=O)N1CCOCC1 [Example 279] :: no (0)
Cc1cc(Nc2nccn3c(-c4ccc(OC(F)F)cc4)cnc23)ccc1C(=O)NCCNC(=O)N1CCNCC1 [Example 345] :: no (0)
CCc1cc(Nc2nccn3c(-c4ccc(Oc5ccncn5)c(F)c4F)cnc23)ccc1C(=O)NCCNC(=O)[C@@H](N)CCNC(=N)N [Example 440, formic acid] :: no (0)
CCc1cc(Nc2nccn3c(-c4ccc(Oc5ncccn5)c(F)c4F)cnc23)ccc1C(=O)NCCCNC(=O)C1CCN(CC2CCNC2)CC1 (stereo not shown) [Example 545, formate] :: yes (1)

We now examine a further compound.
is_below(IC90, 500 nM) for COc1ccc(-c2cnc3c(Nc4ccc(C(=O)NCC5CCN(C(=N)N)CC5)c(C)c4)nccn23)c(F)c1F [Example 292] ?
yes (1)

* * *

System: Acinetobacter baumannii ATCC 17978
Experiment: Antimicrobial susceptibility testing: 90% growth inhibitory concentration (IC90) determination
Type: cell-based
Details: Acinetobacter baumannii, ATCC17978, 16 h, 90% growth inhibitory concentration; Acinetobacter baumannii ATCC17978; Iso-Sensitest broth, OD 600 nm over 16h; read-out: ATCC17978 IC90
Structures can show the parent of a compound that is named as a salt.
RECORDED ENDPOINT: IC90 (nM)
The response must be a number in nM with no trailing unit.

Cc1cc(Nc2nccn3c(-c4ccc(OC(F)F)cc4)cnc23)ccc1C(=O)NCCN :: 5100
Cc1cc(Nc2nccn3c(-c4ccc(OC(F)F)cc4)cnc23)ccc1C(=O)NCCN1CCNC(=O)C1 :: 1100
Cc1cc(Nc2nccn3c(-c4ccc(OC(F)F)cc4)cnc23)ccc1C(=O)NC[C@H](C)N :: 3300
CCc1cc(Nc2nccn3c(-c4ccc(Oc5ccncn5)c(F)c4F)cnc23)ccc1C(=O)NCCCNC(=O)CCCNCCCN :: 190
Cc1cc(Nc2nccn3c(-c4ccc(OC(F)F)cc4)cnc23)ccc1C(=O)N(C)CCC1CCN(CCC(=O)O)CC1 :: 650
COc1ccc(-c2cnc3c(Nc4ccc(C(=O)NCCCNC(=O)[C@@H]5C[C@](C)(O)CN5)c(C)c4)nccn23)c(F)c1F :: 80

Could you tell me which IC90 is on file for COc1ccc(-c2cnc3c(Nc4ccc5c(c4)CCCNC5=O)nccn23)cc1F [Example 390, hydrochloride] ?
220

* * *

Documented IC90 across a set of compounds
Test system: Acinetobacter baumannii ATCC 17978
Experiment: Antimicrobial susceptibility testing: 90% growth inhibitory concentration (IC90) determination
Format: cell-based
Conditions: Acinetobacter baumannii, ATCC17978, 16 h, 90% growth inhibitory concentration; Acinetobacter baumannii ATCC17978; Iso-Sensitest broth, OD 600 nm over 16h; read-out: ATCC17978 IC90
Counter-ions that a name gives are not always drawn.
The response must be a number in µM with no trailing unit.

Recorded results for 3 compounds are shown here.
COc1ccc(-c2cnc3c(Nc4ccc(C(=O)NCC5CCN(C(=N)N)CC5)c(Cl)c4)nccn23)cc1F :: 0.15
COc1ccc(-c2cnc3c(Nc4ccc(C(=O)NC[C@@H](N)CNC(=O)[C@@H]5C[C@@H](O)CN5)c(C)c4)nccn23)c(F)c1F :: 0.48
Cc1cc(Nc2nccn3c(-c4ccc(OCC#N)c(F)c4F)cnc23)ccc1C(=O)NC[C@@H](N)CNC(=O)[C@@H]1C[C@@H](O)CN1 :: 0.21

Could you tell me which IC90 is on file for CCc1cc(Nc2nccn3c(-c4ccc(OCC#N)c(F)c4F)cnc23)ccc1C(=O)NCCNC(=O)[C@@H](N)CN [Example 145, formate] ?
0.15

Could you tell me which IC90 is on file for CCc1cc(Nc2nccn3c(-c4ccc(Oc5ccccn5)c(F)c4F)cnc23)ccc1C(=O)NCCCC(=O)N1CCN[C@H](CO)C1 ?
0.36

Could you tell me which IC90 is on file for C#CCNC(=O)c1ccc(Nc2nccn3c(-c4ccc(OC)c(F)c4F)cnc23)cc1CC ?
0.062

* * *

Tested on: Acinetobacter baumannii ATCC 17978
Assay: Antimicrobial susceptibility testing: 90% growth inhibitory concentration (IC90) determination
Format: cell-based
Conditions: Acinetobacter baumannii, ATCC17978, 16 h, 90% growth inhibitory concentration; Acinetobacter baumannii ATCC17978; Iso-Sensitest broth, OD 600 nm over 16h; read-out: ATCC17978 IC90
Entries whose IC90 is below 800 nM take T; entries at or above 800 nM take F.

is_below(IC90, 800 nM) for Cc1cc(Nc2nccn3c(-c4ccc(Cl)c(F)c4F)cnc23)ccc1C(=O)NCCN ?
F

is_below(IC90, 800 nM) for CCc1cc(Nc2nccn3c(-c4ccc(OC)c(F)c4F)cnc23)ccc1C(=O)NCCNC(=O)[C@@H](N)CO ?
T

* * *

Tested on: Acinetobacter baumannii ATCC 17978
Assay: Antimicrobial susceptibility testing: 90% growth inhibitory concentration (IC90) determination
Assay type: cell-based
Settings: Acinetobacter baumannii, ATCC17978, 16 h, 90% growth inhibitory concentration; Acinetobacter baumannii ATCC17978; Iso-Sensitest broth, OD 600 nm over 16h; read-out: ATCC17978 IC90
Where a name gives a salt, the structure may show the parent alone.
Entries whose IC90 is below 500 nM take class 1; entries at or above 500 nM take class 0.

The following compounds have reported results that may help.
CCc1cc(Nc2nccn3c(-c4ccc(Oc5ccccn5)c(F)c4F)cnc23)ccc1C(=O)NCCNC(=O)[C@@H](N)CCCNC(=N)N :: class 0
COC(=O)[C@H](CCCCNC(=O)c1ccc(Nc2nccn3c(-c4ccc(OC(F)F)cc4)cnc23)cc1C)NC(=O)OC(C)(C)C :: class 0

is_below(IC90, 500 nM) for CNCCN1CCc2cc(Nc3nccn4c(-c5ccc(OC)c(F)c5F)cnc34)ccc2C1=O [Example 300, hydrochloride] ?
class 1

is_below(IC90, 500 nM) for C#CCOc1ccc(-c2cnc3c(Nc4ccc(C(=O)NCCCN)c(CC)c4)nccn23)c(F)c1F ?
class 1

is_below(IC90, 500 nM) for CCc1cc(Nc2nccn3c(-c4ccc(OC)c(F)c4F)cnc23)ccc1C(=O)NCC(O)CNC(=O)[C@@H](N)CCCN (mixture of isomers) [Example 413, dihydrochloride] ?
class 1

is_below(IC90, 500 nM) for COc1ccc(-c2cnc3c(Nc4ccc(C(=O)N(C)CC(=O)N5CCNC(=O)C5)c(C)c4)nccn23)cc1F ?
class 0

* * *

Test system: Acinetobacter baumannii ATCC 17978
Assay: Antimicrobial susceptibility testing: 90% growth inhibitory concentration (IC90) determination
Format: cell-based
Conditions: Acinetobacter baumannii, ATCC17978, 16 h, 90% growth inhibitory concentration; Acinetobacter baumannii ATCC17978; Iso-Sensitest broth, OD 600 nm over 16h; read-out: ATCC17978 IC90
Procedure: Antimicrobial Susceptibility Testing: 90% Growth Inhibitory Concentration (IC90) Determination The in vitro antimicrobial activity of the compounds was determined according to the following procedure: The assay used a 10-points Iso-Sensitest broth medium to measure quantitatively the in vitro activity of the compounds against Acinetobacter baumannii ATCC 17978 and Acinetobacter baumannii ATCC 17961. […]
Counter-ions that a name gives are not always drawn.
Entries whose IC90 is below 400 nM take t; entries at or above 400 nM take f.

The following compounds have reported results that may help.
Cc1cc(Nc2nccn3c(-c4ccc(OCC#N)c(F)c4F)cnc23)ccc1C(=O)NCCNC(=O)[C@@H]1C[C@](C)(O)CN1 [Example 133, formate] :: t
CCc1cc(Nc2nccn3c(-c4ccc(OC(F)F)c(F)c4F)cnc23)ccc1C(=O)NCCCN1CCCC1 :: t
CCc1cc(Nc2nccn3c(-c4ccc(OC(F)F)c(F)c4F)cnc23)ccc1C(=O)NCCc1nnc(C)[nH]1 :: t
CCc1cc(Nc2nccn3c(-c4ccc(OC)c(F)c4F)cnc23)ccc1C(=O)NCC(O)CNC(=O)[C@@H](N)CCCCN (mixture of isomers) [Example 412, dihydrochloride] :: f
COc1ccc(-c2cnc3c(Nc4ccc(C(=O)NCCN5CCNCC5)c(Cl)c4)nccn23)c(F)c1F :: t
CCc1cc(Nc2nccn3c(-c4ccc(OC(F)F)c(F)c4F)cnc23)ccc1C(=O)NCCCCN [Example 94, hydrochloride] :: t

We now examine a further compound.
is_below(IC90, 400 nM) for COc1ccc(-c2cnc3c(Nc4ccc(C(=O)N[C@@H](C)CNC(C)=N)c(Cl)c4)nccn23)c(F)c1F ?
t
